# test summary: growth inhibition of DIPG glioma cells, dose response, cell-based, SU-DIPG-IV, MIPE4.0, CellTiter-Glo, qHTS (AID 1347063);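 also: compound exposure lasted 48 hours before the viability readout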
# experimental context: SU-DIPG-IV viability, CellTiter-Glo ATP luminescence
Inconclusive results are not listed. The source made the active and inactive calls. The limit is not given here; nearly all actives have AC50 up to about 30 µM.
value kind: AC50

Sample answers from the record:
CC1CC2C3CCC4=CC(=O)C=C[C@]4(C)[C@@]3(F)[C@@H](O)C[C@]2(C)[C@@]1(O)C(=O)CO (stereo partly drawn); inactive
COc1nc(C)nc(Cl)c1NC1=NCCN1; inactive
O=C(/C=C/c1c(C(=O)O)[nH]c2cc(Cl)cc(Cl)c12)Nc1ccccc1; inactive
C=CC[C@@H]1/C=C(\C)C[C@H](C)C[C@H](OC)[C@H]2O[C@@](O)(C(=O)C(=O)N3CCCC[C@H]3C(=O)O[C@H](/C(C)=C/[C@@H]3CC[C@@H](O)[C@H](OC)C3)[C@H](C)[C@@H](O)CC1=O)[C@H](C)C[C@@H]2OC; 1.18 µM (active)
Nc1ncnc2c1ncn2[C@@H]1O[C@H](CO)C[C@H]1O; inactive
Fc1ccc(Cl)cc1-c1nc(Nc2ccncc2)c2nccnc2n1; inactive

Returns the measured AC50 for the input compound. Input: CO[C@H]1O[C@@H]2O[C@@]3(C)CC[C@H]4[C@H](C)CC[C@@H]([C@H]1C)[C@@]24OO3
inactive

Ok, now O=C1C(c2c(O)[nH]c3ccccc23)=Nc2ccccc21
13.2 µM (active)

Ok, now O=C(O)c1ccc(-c2c[nH]c3ncc(-c4ccccc4)cc23)cc1C1CCCC1
0.372 µM (active)

Ok, now CC(C)=CCC/C(C)=C/CC/C(C)=C/CC/C(C)=C/CC/C(C)=C/CC/C(C)=C/CC/C(C)=C/CC/C(C)=C/CC/C(C)=C/CO
inactive

* * *

# Tested on: R275C
# test summary: modulators of BK channel variants, profiling panel, selectivity assay, cell-based, U2OS BacMam, thallium flux, beta subunits (AID 1259406);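 also: initial slope of Thallos dye fluorescence rise after thallium is added; log ratio against the mean of 0.3% DMSO vehicle wells on the same plate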
# experimental context: at 30 µM
value kind: log fold change Tl+ flux
Lab note: write the figure by itself, no unit.

NS(=O)(=O)c1cccc(NC(=O)c2cccnc2Oc2ccccc2)c1; -0.0268
COC(=O)c1cc(-c2nc(-c3ccc(Cl)cc3Cl)cs2)c(SC)s1; -0.00909

Returns the measured log fold change Tl+ flux for the input compound. Input: Cc1ccc(C(=O)CC(=CC(=C(C#N)c2ccc([N+](=O)[O-])cc2)c2ccc(C)cc2)c2ccccc2)cc1
-0.0132

* * *

# test summary: growth inhibition of DIPG glioma cells, dose response, cell-based, JHH-DIPG-1, MIPE4.0, CellTiter-Glo, qHTS (AID 1347062);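 as to AC50: cells exposed to compound for two days before readout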
# experimental context: JHH-DIPG-1 viability, CellTiter-Glo ATP luminescence
Records with an inconclusive call do not appear. The source made the active and inactive calls. No cut-off is given here; in the data, nearly all actives have AC50 up to about 27 µM.
Select the matching outcome among y (active), n (inactive)

Below, 5 compounds whose answers are already recorded.
Clc1ccc(-c2nc3sccn3c2/C=N/OCc2ccc(Cl)c(Cl)c2)cc1; n
CC(C)(CO)[C@@H](O)C(=O)NCCC(=O)O; n
Oc1cc(-c2nc(-c3ccccc3)[nH]c2-c2ccncc2)ccc1Cl; y
O=c1cc(-c2cccc3c2Sc2ccccc2S3)oc(N2CCOCC2)c1; n
C=C1/C(=C\C=C2/CCC[C@]3(C)[C@@H]([C@H](C)CCCC(C)(C)O)CC[C@@H]23)C[C@@H](O)C[C@@H]1O; y

What call does the record list for O=C1c2c(O)cc(O)cc2O[C@H](c2ccc(O)c(O)c2)[C@H]1O ?
n

Ok, now O=C1C(Cl)=C(NCCN2CCOCC2)C(=O)c2ncccc21
y

Ok, now NCCCCNCCCN
n

Ok, now NC(=O)c1ccc(-c2nc(-c3ccc4c(c3)OCCO4)c(-c3ccccn3)[nH]2)cc1
n

Ok, now O=C1c2ccccc2-c2n[nH]c3cccc1c23
n

Ok, now COc1cccc(-c2cc(=O)c3ccccc3o2)c1N
n

Ok, now CCC(C)N(C)C(=O)c1cc2ccccc2c(-c2ccccc2Cl)n1 (centres undefined)
n

Ok, now CN1C(=O)C(Cc2c[nH]c3ccccc23)NC1=S (centres undefined)
n

Ok, now COc1nc(C)nc(Cl)c1NC1=NCCN1
n

Ok, now CC(C)c1ccc2c(c1)c(SC(C)(C)C)c(CC(C)(C)C(=O)O)n2Cc1ccc(Cl)cc1
n

Ok, now O=C(O)c1ccc(-c2c[nH]c3ncc(-c4ccccc4)cc23)cc1C1CCCC1
n

Ok, now CN(C)CCOc1ccc(/C(=C(/CCCl)c2ccccc2)c2ccccc2)cc1
n

Ok, now CO[C@H]1O[C@@H]2O[C@@]3(C)CC[C@H]4[C@H](C)CC[C@@H]([C@H]1C)[C@@]24OO3
n

Ok, now CN1CCN2c3ncccc3Cc3ccccc3C2C1 (centres undefined)
n

Origin of measurements: PubChem BioAssay
